Tested target: T1, recombinant canine β NGF (canine, UniProt Q29074 110-229 (pig entry))
T1 construct: also called canine NGF
T1 chain: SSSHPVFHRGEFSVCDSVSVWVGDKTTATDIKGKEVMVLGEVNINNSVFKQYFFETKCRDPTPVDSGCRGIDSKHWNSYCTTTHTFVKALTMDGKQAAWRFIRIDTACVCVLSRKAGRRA
Assay procedure: direct ELISA, canine NGF coated at 1 µg/ml, mAb at 10 µg/ml
Field: absorbance at 450 nm. Provide a value for each of the binders that follow.
Numbers only, in A450.

Solved cases below.
Binder | Property | Unit | Value measured
PR-1254972 (antibody, mouse IgG2b, V domains shown, also called 20B10; ML129-20B10.3F4) VH: EVHLVESGGGLVKPGGFLILSCAASGFTFSDYYMFWIRQTPGKRLEWVATISDGGSYTYYTDNVKGRFTISRDNVKNNLYLQMSHLKSADTAMYYCARDWSDSEGFAYWGQGTLVTVSA VL: DVLMTQTPLSLPVSLGDQASISCRSSQSIVQSNGNTYLEWYLQKPGQSPKLLIYKVSNRFSGVPDRFSGSGSGTDFTLKISRVEAEDLGVYYCFQGSHVPFTFGSGTKLEIKR | absorbance at 450 nm | A450 | 0.154
PR-1254977 (antibody, mouse IgG1, V domains shown, also called 21D4; ML129-21D4.4A11) VH: EVQLQQSGAELVKPGASVKLSCTASGFNIKDTYIYWVKQRPEQGLEWIGRIDPANGNTIYASKFQGKASITADTSSNTAYMQLSSLTSGDTAVYYCAGYGYYAYWGQGTTLTVSS VL: DVVLTQTPLSLPVNIGDQASISCKSTKSLLNGDGFTYLDWYLQKPGQSPQLLIYLVSNRFSGVPDRFSGSGSGTDFTLKISRVEAEDLGVYYCFESNYLFTFGSGTKLEMKR | absorbance at 450 nm | A450 | 0.552

Query binder follows.
Dear colleague, please send me the reported absorbance at 450 nm for PR-1254980 (antibody, mouse IgG1, V domains shown, also called 23F1; ML129-23F1.4G3) VH: EVQLQQSGAELVKPGASVKLSCTASGFNIKDTYIYWVKQRPEQGLEWIGRIDPANGNTIYASKFQGKATITADTSSNTAYMQLSSLTSGDTAVYYCAGYGYYAYWGQGTTLTVSS VL: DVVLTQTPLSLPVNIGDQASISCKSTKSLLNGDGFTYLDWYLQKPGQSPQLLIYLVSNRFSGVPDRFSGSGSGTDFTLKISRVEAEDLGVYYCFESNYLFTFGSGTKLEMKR when you can.
0.491
